- study target: T1, human DKK1 (human, UniProt O94907 32-266)
- T1 construct: also called huDKK1; hDKK1
- T1 sequence: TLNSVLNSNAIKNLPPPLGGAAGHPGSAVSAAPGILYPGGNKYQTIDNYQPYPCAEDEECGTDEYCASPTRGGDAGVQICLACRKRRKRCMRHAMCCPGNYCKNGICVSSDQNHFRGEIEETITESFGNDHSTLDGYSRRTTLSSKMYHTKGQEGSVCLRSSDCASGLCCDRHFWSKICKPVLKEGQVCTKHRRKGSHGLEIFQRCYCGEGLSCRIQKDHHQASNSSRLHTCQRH
- assay text: BiaCore 2000
experimental readout: koff (s⁻¹)

INSERT INTO measurements (binder, unit_of_measurement, readout_qualifier, recorded_measurement) VALUES
  ('2.41.1 (antibody, V domains shown, Fully human hybridoma IgG, kappa (Vk)) VH: QVQLVESGGGVVQPGRSLRLSCAASGFTFSSYGMHWVRQAPGKGLEWVAVISYDGSDKYYADSVKGRFTISRDNSKNTLYLQMNSLRAEDTAVYYCARAGYSLYYYYGMDVWGQGTTVTVSS VL: DIVMTQTPLSLSVTPGQPASISCKSSQSLLHSDGKTYLYWYLQKPGQPPQLLIYEVSNRFSGVPDRFSGSGSGTDFTLKISRVEAEDVGVYYCMQSKQLPFTFGPGTKVDIK', 's⁻¹', '=', 0.0013),
  ('5.77.1 (antibody, V domains shown, Fully human hybridoma IgG, lambda (Vl)) VH: QVQLVQSGAEVKKPGASVKVSCKASGYTFTSYDINWVRQATGQGLEWMGWMNLNSDNTGYAQKFQGRVTMTRNTSISTAYMELSSLRSEDTAVYYCASIAARRDYNYYGMDVWGQGTKVTVSS VL: QSPSVSVAPGQTARITCGGNNIGSKSVHWYQQKPGQAPVLVVYDDSDRPSGIPERFSGSNSGNTATLTISRVEAGDEADYYCQVWDSSSDHWVFGGGTKLTVL', 's⁻¹', '<', '2e-05'),
  ('6.116.6 (antibody, V domains shown, Fully human IgG, kappa (Vk)) VH: QVQLVESGGGVVQPGRSLRLSCAASGFTFSGYGMHWVRQAPGKGLEWVAVISYDGNDKYYADSVKGRFTISRDNAKNTLYLQMNSLRAEDTAVYYCARELRVLWGQGTLVTVSS VL: DIVMTQTPLSLSVTPGQPASISCKSGQSLLHNDGKTYLYWYLQKPGQPPQFLIYEVSNRFSRVPDRFSGSGSGTDFTLKISRVEAEDVGIYYCMQSIQLPWTFGQGTQVEIK', 's⁻¹', '=', '2e-05');
